SYSTEM_TESTED: T1, soluble human ILT4-ECD (human, UniProt Q8N423 22-460)
T1 construct: also called LILRB2 extracellular domain
TEST: SPR (Biacore), antibody captured on Protein A chip, soluble ILT-ECD injected (1.6-200 nM), 25 C
PROPERTY: koff (s⁻¹)
Give the value in s⁻¹ but do not write s⁻¹ after it.

Field koff (entry anti-ILT2/ILT4 antibody 51A1 (antibody, V domains shown, Mouse hybridoma antibody) VH: EVQLVESGGGLVQPKGSLKLSCAASGFTFNTYAMHWVRQAPGKGLEWVARIRSKSSNYATYYADSVKDRFTISRDDSQSMLYLQMNNLKTEDTAMYYCVRDGIYYYGTMYYYAMDYWGQGTSVTVSS VL: NIVLTQSPASLAVSLGQRATISCRASESVDYYGNSFMYWYQQKPGQPPKLLIYFASNLESGVPARFSGSGSRTDFTLTIDPVEAADAASYYCQQNNEDPWTFGGGTKLEIK ) reads 1.4e-05

Field koff (entry anti-ILT2/ILT4 antibody 73D1 (antibody, V domains shown, Mouse hybridoma antibody; Shares its light chain variable region with 73C4) VH: AVQLQQSGPELVKPGASVKISCKASGYTFTDYYINWVKQSHGKSLQWIGNVNPNDGGTTYNQKFKGKATLTVDKSSSTAYMELRSLTSEDSAVYYCARREIYFYGTIYYYAMDYWGQGTSVTVSS VL: DIVLTQSPASLAVSLGQRATISCRASESVDYYGNSFMYWYQQKPGRPPNLLIYFASNLESGVPARFSGSGSRTDFTLTIDPVEADDAATYYCQQNNEDPWTFGGGTKLEIK ) reads 5.4e-05

Field koff (entry anti-ILT4 antibody 47C8 (antibody, V domains shown, Mouse hybridoma antibody) VH: EVQLQQSGPDLVKPGASVKISCKASGYSFTGYYMHWVKQSHGKSLEWIGRVYPNNGDTSYNQKFKVKAILTVDKSSSTAYMELRSLTSEDSAVYYCARGATVVESLFAYWGQGTLVTVSA VL: DIVLTQSPASLAVSLGQRATISCRASESVDNYGNNFLHWYQQKPGQPPKLLIYRTSNLESGIPARFSGSGSRTDFTLTINPVEADDVATYYCQQSNEDPYTFGGGTKLEIK ) reads 2.5e-05

Field koff (entry anti-ILT2/ILT4 antibody 47H6 (antibody, V domains shown, Mouse hybridoma antibody) VH: EVQLQQSGPELVKPGASVKISCKASGYTFTDYYMNWVKQSHGKSLEWIGDFNPNNGGTTYNQKFEGKATLTVDKSSNTAYMDLRSLTSEDSAVYYCARGRFYYGSLYSFDYWGQGTTLTVSS VL: DIQMTQSPASLSASVGETVTITCRASGNIHNYLAWYQQKQGKSPHLLVYNAKTLADGVPSRFSGSGSGTQYSLKINNLQPEDFGSYYCQHFWTSITFGAGTKLDLK ) reads 2.8e-05

Sourced from patent US20240025997A1
